Target: T1, murine BACE1 ECD
T1 construct: analyte of the Octet assay (200 nM) and enzyme of the first short substrate assay
T1 sequence (single chain, as listed by the source limits assumed): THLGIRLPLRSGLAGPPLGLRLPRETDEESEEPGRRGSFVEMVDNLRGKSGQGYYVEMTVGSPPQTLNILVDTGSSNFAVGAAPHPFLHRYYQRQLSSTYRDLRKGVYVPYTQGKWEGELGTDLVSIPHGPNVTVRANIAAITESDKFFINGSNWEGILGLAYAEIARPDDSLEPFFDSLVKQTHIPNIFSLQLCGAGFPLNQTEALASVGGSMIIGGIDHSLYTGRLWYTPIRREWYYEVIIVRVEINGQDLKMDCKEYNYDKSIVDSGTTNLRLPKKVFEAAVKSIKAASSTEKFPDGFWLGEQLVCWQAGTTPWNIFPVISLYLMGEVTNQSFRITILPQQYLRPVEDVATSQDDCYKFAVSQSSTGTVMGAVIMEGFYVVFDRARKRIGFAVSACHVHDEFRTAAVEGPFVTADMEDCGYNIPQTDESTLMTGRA
Assay: Octet, pH 7.5;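 further: antibodies captured on anti-human capture biosensor tips, dissociation followed in PBS with BSA buffer, kinetics fitted with a one-to-one binding model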
Simple rule here: Kd less than 1000 pM is 1 (yes), otherwise 0 (no).

Sample answers from the record:
| binder | group |
| --- | --- |
| 5905 (antibody, V domains shown, anti-BACE1 IgG) VH: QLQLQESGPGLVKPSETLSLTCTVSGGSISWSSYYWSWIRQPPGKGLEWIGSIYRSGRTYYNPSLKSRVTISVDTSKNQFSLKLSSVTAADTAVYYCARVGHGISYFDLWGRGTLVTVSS VL: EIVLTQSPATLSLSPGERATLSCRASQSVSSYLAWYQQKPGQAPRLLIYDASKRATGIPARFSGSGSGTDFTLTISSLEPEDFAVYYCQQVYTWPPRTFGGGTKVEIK | 0 (no) |
| 5986 (antibody, V domains shown, anti-BACE1 IgG) VH: QLQLQESGPGLVKPSETLSLTCTVSGGSISSSSYYWGWIRQPPGKGLEWIGQIYYSGSTFYNPSLKSRVTISVDTSKNQFSLKLSSVTAADTAVYYCARLGHGYSYFDLWGRGTLVTVSS VL: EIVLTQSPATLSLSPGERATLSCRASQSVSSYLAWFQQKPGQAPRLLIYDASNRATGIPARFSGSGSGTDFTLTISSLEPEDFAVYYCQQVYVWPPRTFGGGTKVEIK | 1 (yes) |
| 5932 (antibody, V domains shown, anti-BACE1 IgG) VH: QLQLQESGPGLVKPSETLSLTCTVSGGSISRGSYYWGWIRQPPGKGLEWIGMIYYSGSTWYNPSLKSRVTISVDTSKNQFSLKLSSVTAADTAVYYCARVGHGISYFDLWGRGTLVTVSS VL: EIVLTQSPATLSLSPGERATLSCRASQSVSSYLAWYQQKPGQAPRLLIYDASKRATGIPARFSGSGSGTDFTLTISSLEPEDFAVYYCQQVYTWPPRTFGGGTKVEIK | 1 (yes) |
| 5933 (antibody, V domains shown, anti-BACE1 IgG) VH: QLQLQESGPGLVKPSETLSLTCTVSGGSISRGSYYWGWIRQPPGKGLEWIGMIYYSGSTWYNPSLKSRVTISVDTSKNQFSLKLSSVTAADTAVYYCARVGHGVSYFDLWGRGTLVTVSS VL: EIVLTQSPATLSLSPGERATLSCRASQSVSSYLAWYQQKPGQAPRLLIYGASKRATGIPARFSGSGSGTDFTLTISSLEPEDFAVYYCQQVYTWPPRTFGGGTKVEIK | 1 (yes) |
| 5888 (antibody, V domains shown, anti-BACE1 IgG) VH: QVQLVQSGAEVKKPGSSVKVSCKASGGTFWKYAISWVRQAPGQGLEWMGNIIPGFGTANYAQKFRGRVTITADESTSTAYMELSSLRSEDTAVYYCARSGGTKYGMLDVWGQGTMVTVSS VL: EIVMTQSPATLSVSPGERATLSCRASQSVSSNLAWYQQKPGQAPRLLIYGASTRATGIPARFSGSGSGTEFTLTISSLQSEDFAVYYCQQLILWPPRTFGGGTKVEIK | 0 (no) |
| 5982 (antibody, V domains shown, anti-BACE1 IgG) VH: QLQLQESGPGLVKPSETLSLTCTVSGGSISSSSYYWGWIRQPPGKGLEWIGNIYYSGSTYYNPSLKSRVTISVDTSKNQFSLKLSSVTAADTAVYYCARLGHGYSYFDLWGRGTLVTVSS VL: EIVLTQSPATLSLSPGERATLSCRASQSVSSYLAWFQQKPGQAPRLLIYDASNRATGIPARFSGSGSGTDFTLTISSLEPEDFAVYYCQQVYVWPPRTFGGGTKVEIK | 0 (no) |
| 5930 (antibody, V domains shown, anti-BACE1 IgG) VH: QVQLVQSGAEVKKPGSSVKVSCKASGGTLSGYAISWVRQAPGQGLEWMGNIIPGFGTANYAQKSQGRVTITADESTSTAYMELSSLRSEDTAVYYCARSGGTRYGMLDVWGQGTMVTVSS VL: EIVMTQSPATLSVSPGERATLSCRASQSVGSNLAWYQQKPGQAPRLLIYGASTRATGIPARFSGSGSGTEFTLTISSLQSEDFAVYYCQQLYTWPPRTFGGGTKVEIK | 1 (yes) |
| 5931 (antibody, V domains shown, anti-BACE1 IgG) VH: QLQLQESGPGLVKPSETLSLTCTVSGGSISWSSYYWSWIRQPPGKGLEWIGSIYRSGRTYYNPSLKGRVTISVDTSKNQFSLKLSSVTAADTAVYYCARVGHGINYFDLWGRGTLVTVSS VL: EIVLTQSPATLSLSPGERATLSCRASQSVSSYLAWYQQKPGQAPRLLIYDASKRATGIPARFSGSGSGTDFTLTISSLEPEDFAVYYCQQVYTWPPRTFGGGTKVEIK | 1 (yes) |

Now for a further binder.
State whether 1000 pM exceeds Kd recorded for 5894 (antibody, V domains shown, anti-BACE1 IgG) VH: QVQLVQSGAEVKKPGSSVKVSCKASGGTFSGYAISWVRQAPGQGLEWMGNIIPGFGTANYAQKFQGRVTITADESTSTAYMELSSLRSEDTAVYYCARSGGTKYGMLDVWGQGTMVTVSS VL: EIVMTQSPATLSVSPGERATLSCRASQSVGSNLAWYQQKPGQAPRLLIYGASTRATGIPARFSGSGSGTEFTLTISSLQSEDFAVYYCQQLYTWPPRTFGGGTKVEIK .
1 (yes)
